Reported pIC50 values for the following compounds.
# system.under.test: Ace-orthologous acetylcholinesterase (Nephotettix cincticeps, UniProt Q9NJH6)
# Sequence (Q9NJH6 whole entry): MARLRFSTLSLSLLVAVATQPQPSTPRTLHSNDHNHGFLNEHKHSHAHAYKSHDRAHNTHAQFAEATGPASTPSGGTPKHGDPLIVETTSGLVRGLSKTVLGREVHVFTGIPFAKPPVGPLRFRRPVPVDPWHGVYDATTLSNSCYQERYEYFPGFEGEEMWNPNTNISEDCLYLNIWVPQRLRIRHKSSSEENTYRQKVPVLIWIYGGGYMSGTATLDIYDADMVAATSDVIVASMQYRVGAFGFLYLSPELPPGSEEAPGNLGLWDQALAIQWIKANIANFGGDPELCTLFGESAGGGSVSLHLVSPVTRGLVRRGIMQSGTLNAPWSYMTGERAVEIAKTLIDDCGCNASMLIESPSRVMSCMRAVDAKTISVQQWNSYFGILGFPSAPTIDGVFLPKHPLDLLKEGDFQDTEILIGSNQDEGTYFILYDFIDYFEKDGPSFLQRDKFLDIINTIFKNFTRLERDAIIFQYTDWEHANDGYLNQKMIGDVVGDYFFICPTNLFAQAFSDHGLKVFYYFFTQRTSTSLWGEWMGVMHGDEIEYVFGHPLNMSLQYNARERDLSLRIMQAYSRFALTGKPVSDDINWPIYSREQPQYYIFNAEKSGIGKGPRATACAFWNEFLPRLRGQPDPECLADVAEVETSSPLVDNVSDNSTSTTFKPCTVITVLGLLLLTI
# test.summary: Inhibition of drug-susceptible Nephotettix cincticeps Ageo (green rice leafhopper) acetylcholinesterase
# conditions.used: read-out: I50
Note on pIC50: it is the negative log10 of concentration, concentration in mol/L.

compound	measured
CC(C)CS(=O)(=O)c1nc(OS(C)(=O)=O)cs1	8.72
CCC(C)c1ccccc1OC(=O)NC (centres undefined)	6.74
CC(C)CS(=O)(=O)c1ccnc(OS(C)(=O)=O)c1	7.59
CC(C)CSc1nc(OS(C)(=O)=O)cs1	4.24
CC(C)CSc1cccc(OS(C)(=O)=O)n1	2.70
CC(C)CS(=O)(=O)c1cccc(OS(C)(=O)=O)c1	7.34

Entry CNC(=O)Oc1cccc2ccccc12 has what pIC50?
7.54

CC(C)C[S+]([O-])c1cccc(OS(C)(=O)=O)c1 (centres undefined) ?
8.70

For CC(C)CS(=O)(=O)c1cccc(OS(C)(=O)=O)n1 then?
8.24
